- Test system: cucumber gray mold pathogen (Botrytis cinerea)
- Experiment: Cucumber gray mold control test
- Format: in vivo
- Condition Summary: 96 h, cucumber seedlings (Sagami Hanjiro), emulsion sprayed at 100 ppm, 4 days
Value Type: pest or weed control at 100 ppm

These solved cases illustrate the format of a correct answer.
[
  {
    "Mol": "COC(C)(C)c1ncccc1Oc1cc2cccc(F)c2nc1C",
    "Value Type": "pest or weed control at 100 ppm",
    "Reported": "≥ 75%"
  },
  {
    "Mol": "CCOC(C)(C)c1ncccc1Oc1cc2cccc(F)c2nc1C",
    "Value Type": "pest or weed control at 100 ppm",
    "Reported": "≥ 75%"
  },
  {
    "Mol": "COC(C)(C)c1ncccc1Oc1nc2ccc(F)c(F)c2nc1C",
    "Value Type": "pest or weed control at 100 ppm",
    "Reported": "≥ 75%"
  }
]

Lab note: next molecule to report on.
Please look at CC(C)(C=O)c1ncccc1Oc1cnc2c(F)cccc2c1 and tell me its recorded pest or weed control at 100 ppm on cucumber gray mold pathogen (Botrytis cinerea). ≥ 75%
